subject of test: UniProt P35414
Sequence (P35414 whole entry): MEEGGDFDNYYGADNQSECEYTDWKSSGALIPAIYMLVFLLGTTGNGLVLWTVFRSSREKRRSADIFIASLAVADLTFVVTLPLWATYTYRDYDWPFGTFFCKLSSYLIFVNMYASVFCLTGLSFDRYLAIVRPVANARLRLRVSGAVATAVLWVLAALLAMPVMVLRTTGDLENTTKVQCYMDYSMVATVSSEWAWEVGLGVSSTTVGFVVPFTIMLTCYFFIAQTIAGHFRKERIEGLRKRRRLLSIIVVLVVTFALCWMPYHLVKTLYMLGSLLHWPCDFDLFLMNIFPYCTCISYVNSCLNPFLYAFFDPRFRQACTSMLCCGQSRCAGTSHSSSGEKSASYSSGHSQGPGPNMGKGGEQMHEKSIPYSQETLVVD
assay remarks: Displacement of [125I]-[Nle75, Tyr77] Pyr1-apelin-13 from YFP-tagged human APJ receptor expressed in HEK293 cell membranes after 1 hr by gamma-counting method
Starred links: 1 amine or outer side, 2 acyl side, 3 side chain; linkers in the order of their positions; H or OH if unused. Positions of bridges follow the written chain, without caps; N, C: chain ends. Non-standard residues stand in square brackets, D forms with d. Residues, ends and D or L forms follow the SMILES beside them. X4 = O=C([C@H](CO)N(CC=[*:3])[*:1])[*:2]; X5 = O=C([C@H](CCNCC=[*:3])N[*:1])[*:2]; AllylGly = C=CC[C@H](N)C(=O)O; pGlu = O=C1CC[C@@H](C(=O)O)N1; Nle = CCCC[C@H](N)C(=O)O
readout: Ki

| molecule | subject of test | result |
| --- | --- | --- |
| C=CC[C@H](NC(=O)[C@H](CO)NC(=O)[C@H](CC(C)C)NC(=O)[C@H](CCCNC(=N)N)NC(=O)[C@@H]1CCCN1C(=O)[C@H](CCCNC(=N)N)NC(=O)[C@@H]1CCC(=O)N1)C(=O)N[C@@H](CCCCN)C(=O)NCC(=O)N1CCC[C@H]1C(=O)N[C@@H](CC=C)C(=O)N1CCC[C@H]1C(=O)N[C@@H](Cc1ccccc1)C(=O)O ([pGlu]RPRLS[AllylGly]KGP[AllylGly]PF-OH) | UniProt P35414 | 0.3 nM |
| CCCC[C@@H]1NC(=O)[C@@H]2CCCN2C(=O)[C@@H](N)CCNC/C=C\C[C@@H](C(=O)O)NC(=O)[C@@H]2CCCN2C1=O (H-[X5]P[Nle]P[AllylGly]-OH; staple (Z) 1-5) | UniProt P35414 | > 10000 nM |
| CCCC[C@H](NC(=O)[C@@H]1C/C=C\C[C@H](NC(=O)[C@H](CC(C)C)NC(=O)[C@H](CCCNC(=N)N)NC(=O)[C@@H]2CCCN2C(=O)[C@H](CCCNC(=N)N)NC(=O)[C@@H]2CCC(=O)N2)C(=O)N[C@@H](Cc2cnc[nH]2)C(=O)N[C@@H](CCCCN)C(=O)NCC(=O)N1)C(=O)N1CCC[C@H]1C(=O)N[C@@H](Cc1ccccc1)C(=O)O ([pGlu]RPRL[AllylGly]HKG[AllylGly][Nle]PF-OH; staple (Z) 6-10) | UniProt P35414 | 268 nM |
| C=CC[C@H](NC(=O)CNC(=O)[C@H](CCCCN)NC(=O)[C@H](Cc1cnc[nH]1)NC(=O)[C@H](CC=C)NC(=O)[C@H](CC(C)C)NC(=O)[C@H](CCCNC(=N)N)NC(=O)[C@@H]1CCCN1C(=O)[C@H](CCCNC(=N)N)NC(=O)[C@@H]1CCC(=O)N1)C(=O)N[C@@H](CCCC)C(=O)N1CCC[C@H]1C(=O)N[C@@H](Cc1ccccc1)C(=O)O ([pGlu]RPRL[AllylGly]HKG[AllylGly][Nle]PF-OH) | UniProt P35414 | 194 nM |
| CCCC[C@H](NC(=O)[C@@H]1C/C=C\CN(C(=O)[C@H](CC(C)C)NC(=O)[C@H](CCCNC(=N)N)NC(=O)[C@@H]2CCCN2C(=O)[C@H](CCCNC(=N)N)NC(=O)[C@@H]2CCC(=O)N2)[C@@H](CO)C(=O)N[C@@H](Cc2cnc[nH]2)C(=O)N[C@@H](CCCCN)C(=O)NCC(=O)N1)C(=O)N1CCC[C@H]1C(=O)N[C@@H](Cc1ccccc1)C(=O)O ([pGlu]RPRL[X4]HKG[AllylGly][Nle]PF-OH; staple (Z) 6-10) | UniProt P35414 | 188 nM |
| CCCC[C@@H]1NC(=O)[C@@H]2CCCN2C(=O)CNC(=O)[C@@H](NC(=O)[C@H](Cc2cnc[nH]2)NC(=O)[C@H](CO)NC(=O)[C@H](CC(C)C)NC(=O)[C@H](CCCNC(=N)N)NC(=O)[C@@H]2CCCN2C(=O)[C@H](CCCNC(=N)N)NC(=O)[C@@H]2CCC(=O)N2)C/C=C\C[C@@H](C(=O)N[C@@H](Cc2ccccc2)C(=O)O)NC1=O ([pGlu]RPRLSH[AllylGly]GP[Nle][AllylGly]F-OH; staple (Z) 8-12) | UniProt P35414 | 14 nM |
